src = patent US20230167073A1

Overview of reported IC50 across a group of compounds:
Study System: Human TRPC6 (Homo sapiens)
Construct: expressed in transfected cells
Sequence (Q9Y210 1-931): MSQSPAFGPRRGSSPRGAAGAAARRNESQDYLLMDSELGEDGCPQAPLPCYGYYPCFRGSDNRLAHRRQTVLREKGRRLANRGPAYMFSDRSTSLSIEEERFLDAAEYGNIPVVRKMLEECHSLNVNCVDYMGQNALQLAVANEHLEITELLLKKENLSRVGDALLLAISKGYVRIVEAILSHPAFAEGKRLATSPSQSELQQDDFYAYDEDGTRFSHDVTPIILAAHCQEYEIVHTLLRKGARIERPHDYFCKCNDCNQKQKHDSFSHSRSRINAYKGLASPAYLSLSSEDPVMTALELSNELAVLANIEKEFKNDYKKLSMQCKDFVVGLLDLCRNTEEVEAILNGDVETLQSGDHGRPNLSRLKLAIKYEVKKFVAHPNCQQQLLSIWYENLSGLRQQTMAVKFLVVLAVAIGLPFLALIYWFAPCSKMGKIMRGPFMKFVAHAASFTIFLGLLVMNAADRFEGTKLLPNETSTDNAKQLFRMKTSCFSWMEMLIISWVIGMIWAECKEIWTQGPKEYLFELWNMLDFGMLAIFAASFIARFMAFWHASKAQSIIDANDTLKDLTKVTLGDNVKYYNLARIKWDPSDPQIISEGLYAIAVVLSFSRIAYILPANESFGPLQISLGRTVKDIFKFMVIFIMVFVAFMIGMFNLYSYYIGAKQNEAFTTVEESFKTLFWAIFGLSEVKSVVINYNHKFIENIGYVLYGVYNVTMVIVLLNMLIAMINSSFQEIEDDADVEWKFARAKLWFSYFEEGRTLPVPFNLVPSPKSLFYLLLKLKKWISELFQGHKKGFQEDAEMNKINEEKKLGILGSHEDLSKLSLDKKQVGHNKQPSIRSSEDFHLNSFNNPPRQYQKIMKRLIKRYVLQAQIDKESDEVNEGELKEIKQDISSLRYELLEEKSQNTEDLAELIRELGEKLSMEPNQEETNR
Measurement Protocol: Evaluation of TRPC6 channel inhibitory activity (2), HEK293 cells with stably introduced human TRPC6, OAG stimulation, FLIPR tetra (Compound Nos. 1293 to 1405)
Assay type: cell-based
Reported Conditions: HEK293 cells with stably introduced human TRPC6, OAG 50 μM/0.5% DMSO, read-out: Inhibitory activity (pIC50 class) (converted)

{"Compound": "Cn1nc([C@H]2CCOC2)cc1Oc1cc(Cl)ccc1-c1ccc(CN)cn1 [compound 1345]", "IC50": "10 to 1000 nM"}
{"Compound": "Cn1nc(-c2ccccn2)cc1Oc1cc(Cl)ccc1-c1ncc([C@H](O)CN)cn1 [compound 1358]", "IC50": "10 to 1000 nM"}
{"Compound": "Cn1nc(-c2ccccn2)cc1Oc1cc(Cl)cnc1-c1ccc([C@@H](F)CN)cn1 [compound 1353]", "IC50": "10 to 1000 nM"}
{"Compound": "Cc1cc(Oc2cc(C#N)ccc2-c2ccc(CN)c(C)n2)cc(N2CCOCC2)n1 [compound 1304]", "IC50": "< 10 nM"}

====

Study System: Human TRPC6 (Homo sapiens)
Construct: expressed in transfected cells
Measurement Protocol: Evaluation of TRPC6 channel inhibitory activity (1), FLIPR Calcium 5 Assay Kit, OAG stimulation (Compound Nos. 1-1293)
Format: cell-based
Reported Conditions: Human TRPC6 stably-expressing cells, OAG 30 μM, FLIPR Calcium 5 Assay Kit; read-out: Inhibitory activity (pIC50 class) (converted)

{"Molecule": "Cc1nc(OCC2CC2(F)F)cc(Oc2cc(C#N)ccc2-n2cc([C@@H](O)CN)cn2)n1 (some centres unmarked)", "IC50": "10 to 1000 nM"}
{"Molecule": "Cc1nc(Oc2cc(C#N)ccc2-c2ccc(CCN)cc2)cc(-c2cccn2C)n1", "IC50": "10 to 1000 nM"}
{"Molecule": "Cc1cc(Oc2cc(C#N)ccc2-c2ncc([C@H](O)CN)cn2)cc(-c2ccccn2)n1", "IC50": "10 to 1000 nM"}
{"Molecule": "Cn1nc(-c2ccccn2)cc1Oc1cc(C#N)ccc1-c1ncc(CNC23CC4CC(CC(C4)C2)C3)cn1", "IC50": "> 1000 nM"}
{"Molecule": "Cc1cc(Oc2cc(C#N)ccc2-c2ncc(CCN)cn2)cc(N2CCNC(=O)C2)n1", "IC50": "> 1000 nM"}
{"Molecule": "Cc1cc(Oc2cc(C#N)ccc2-c2ccc(CCN)cn2)cc(-c2ccccn2)n1", "IC50": "< 10 nM"}
{"Molecule": "N#Cc1ccc(-c2ncc(CN)cn2)c(Cn2cc(C3CC3)nn2)c1", "IC50": "10 to 1000 nM"}
{"Molecule": "Cn1nc(C(C)(C)C)cc1Oc1cc(C#N)ccc1-c1ccc(C(N)CO)cn1 (centres unmarked)", "IC50": "< 10 nM"}
